The measured values listed here are drawn from paper PMC9214071.

molecular target: PAK4 (Homo sapiens, UniProt O96013); test: PAK4 HTRF assay; format: biochemical; details: Ligand lipophilicity efficiency = (−Log Ki) − (cLogP), PAK4 Ki
Sequence (O96013 whole entry): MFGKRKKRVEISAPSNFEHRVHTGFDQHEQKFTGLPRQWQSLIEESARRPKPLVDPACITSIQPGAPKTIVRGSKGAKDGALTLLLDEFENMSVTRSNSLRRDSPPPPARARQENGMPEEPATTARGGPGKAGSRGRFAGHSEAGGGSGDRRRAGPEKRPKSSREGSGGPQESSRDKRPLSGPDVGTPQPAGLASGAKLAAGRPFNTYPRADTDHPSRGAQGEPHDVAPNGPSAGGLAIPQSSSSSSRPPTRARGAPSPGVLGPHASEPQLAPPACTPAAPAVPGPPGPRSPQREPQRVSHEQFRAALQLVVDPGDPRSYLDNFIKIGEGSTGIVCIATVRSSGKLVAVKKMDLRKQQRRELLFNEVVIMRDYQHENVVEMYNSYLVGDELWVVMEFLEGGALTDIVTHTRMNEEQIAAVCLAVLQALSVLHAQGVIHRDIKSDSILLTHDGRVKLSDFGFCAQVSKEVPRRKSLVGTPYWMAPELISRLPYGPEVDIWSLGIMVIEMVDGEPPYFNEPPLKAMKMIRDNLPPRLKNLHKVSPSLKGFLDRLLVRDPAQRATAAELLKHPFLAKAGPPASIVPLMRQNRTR
PROPERTY_LABEL: LLE

> print(dat)
                                   compound  property.label  endpoint.value
1  Nc1nccc(-n2cc(C(=O)N[C@@H]3CCNC3)c3ccc(C#CC4(O)CCCCC4)cc32)n1 [Compound 52]             LLE            5.48
2  Nc1nccc(-n2cc(C(=O)N3CCC[C@H](N)C3)c3ccc(C#CC4(O)CCCCC4)cc32)n1 [Compound 45]             LLE            4.80
3  C[C@@H]1CN(C(=O)c2cn(-c3ccnc(N)n3)c3cc(C#CC4(O)CCCCC4)ccc23)CCN1 [Compound 54]             LLE            3.53
4  Nc1nccc(-n2cc(C(=O)NC3CCNCC3)c3ccc(C#CC4(O)CCCCC4)cc32)n1 [Compound 44]             LLE            5.28
5  Nc1nccc(-n2cc(C(=O)N3CCC[C@@H](O)C3)c3ccc(C#CC4(O)CCCCC4)cc32)n1 [Compound 49]             LLE            4.12
6  Nc1nccc(-n2cc(C(=O)N3CCC[C@@H](N)C3)c3ccc(C#CC4(O)CCCCC4)cc32)n1 [Compound 47]             LLE            5.65
7  Nc1nccc(-n2cc(C(=O)N3CC[C@H](N)C3)c3ccc(C#CC4(O)CCCCC4)cc32)n1 [Compound 53]             LLE            4.47
